B1: Tyrosine-protein kinase Lck, residues 63 to 120; numbered along this chain, P06239 (parent)
chain: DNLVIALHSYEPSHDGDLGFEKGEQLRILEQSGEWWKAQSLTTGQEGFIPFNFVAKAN

Variants of: B1
Experiment: abundance fitness (aPCA) (normalised: wild type 0, dead -1); higher = more abundant; growth selection in yeast, the domain comes from the species named
Settings: Homo sapiens
Catalogue of abundance fitness readings, one per entry.

Known results for variants:
1) Q39K    -0.042
2) Q25E    -0.021
3) E34R    0.006

Task: Assign abundance fitness to the following record: F20L
Output: -0.411

Task: Assign abundance fitness to the following record: Q31E
Output: 0.025
